Recorded values, source patent US3949075A.

Form field: inhibition in vivo at 15 mg/kg (one value per entry).
System: Haemonchus contortus
Experiment: Percent of Haemonchus destroyed or expelled in infected sheep (egg count after treatment)
Assay type: in vivo, Haemonchus contortus (in sheep)
Conditions: Haemonchus contortus, sheep, 15 mg/kg; Table V; read-out: Effectiveness at 15 mg/kg against Haemonchus
Experimental readout: inhibition in vivo at 15 mg/kg (%)

Structure string	Measure unit	Quantitative readout
Cc1c([N+](=O)[O-])cc(C(C)(C)C)c(O)c1C(=O)Nc1ccccc1Cl	%	33
Cc1c([N+](=O)[O-])cc(C(C)(C)C)c(O)c1C(=O)Nc1ccc(C(F)(F)F)cc1	%	100
Cc1c([N+](=O)[O-])cc(C(C)(C)C)c(O)c1C(=O)Nc1cccc(Cl)c1	%	0
Cc1c([N+](=O)[O-])cc(C(C)(C)C)c(O)c1C(=O)Nc1ccccc1Br	%	0

* * *

Test system: Haemonchus contortus
Test: Percent of Haemonchus destroyed or expelled in infected sheep (egg count after treatment)
Type: in vivo, Haemonchus contortus (in sheep)
Settings: Haemonchus contortus, sheep, 2 mg/kg; Tables VIII-XI; read-out: Haemonchus, percentage of microorganism killed
Recorded inhibition in vivo at 2 mg/kg for the following compounds
Experimental readout: inhibition in vivo at 2 mg/kg (%)

Structure string	Assay target	Measure unit	Quantitative readout
Cc1c([N+](=O)[O-])cc(C(C)(C)C)c(O)c1C(=O)Nc1ccc(Cl)cc1C(F)(F)F	Haemonchus contortus	%	96
Cc1cc(I)ccc1NC(=O)c1c(C)c([N+](=O)[O-])cc(C(C)(C)C)c1O	Haemonchus contortus	%	13
Cc1c([N+](=O)[O-])cc(C(C)(C)C)c(O)c1C(=O)Nc1ccc(Br)cc1C(F)(F)F	Haemonchus contortus	%	99.8
Cc1c([N+](=O)[O-])cc(C(C)(C)C)c(O)c1C(=O)Nc1ccc(Cl)cc1	Haemonchus contortus	%	0
Cc1cc(Cl)ccc1NC(=O)c1c(C)c([N+](=O)[O-])cc(C(C)(C)C)c1O	Haemonchus contortus	%	67
Cc1c([N+](=O)[O-])cc(C(C)(C)C)c(O)c1C(=O)Nc1ccc(Cl)cc1Cl	Haemonchus contortus	%	14

* * *

Experiment: Tolerance / toxicity in sheep
Type: in vivo
Conditions: in vivo, Table 1, read-out: Tolerance, highest test dosage at which the sheep developed no toxic symptoms

Molecule	NOAEL
Cc1c([N+](=O)[O-])cc(C(C)(C)C)c(O)c1C(=O)Nc1ccc(Br)cc1C(F)(F)F [Example 11]	≥ 20 mg/kg
Cc1c([N+](=O)[O-])cc(C(C)(C)C)c(O)c1C(=O)Nc1ccc(C(F)(F)F)cc1 [Example 10]	15 to 50 mg/kg
Cc1c([N+](=O)[O-])cc(C(C)(C)C)c(O)c1C(=O)Nc1ccc(Cl)cc1C(F)(F)F [Example 13]	≥ 15 mg/kg
Cc1c([N+](=O)[O-])cc(C(C)(C)C)c(O)c1C(=O)Nc1ccc(Cl)cc1Cl [Example 5]	50 to 100 mg/kg
Cc1cc(Cl)ccc1NC(=O)c1c(C)c([N+](=O)[O-])cc(C(C)(C)C)c1O [Example 6]	50 to 100 mg/kg
Cc1c([N+](=O)[O-])cc(C(C)(C)C)c(O)c1C(=O)Nc1ccc(Cl)cc1 [Example 7]	15 to 50 mg/kg

* * *

Tested on: sheep
Assay: Tolerance / toxicity in sheep
Type: in vivo
Design: key: Tol.: tolerated; Tox.: toxic; Sym.: symptoms of toxic reaction
Conditions: 50 mg./kg., Tables VIII-X

Compound	Tolerance
Cc1cc(I)ccc1NC(=O)c1c(C)c([N+](=O)[O-])cc(C(C)(C)C)c1O	Sym.
Cc1cc(Cl)ccc1NC(=O)c1c(C)c([N+](=O)[O-])cc(C(C)(C)C)c1O	Sym.
Cc1c([N+](=O)[O-])cc(C(C)(C)C)c(O)c1C(=O)Nc1ccc(Cl)cc1C(F)(F)F	Tox.
Cc1c(Cl)cccc1NC(=O)c1c(C)c([N+](=O)[O-])cc(C(C)(C)C)c1O	Tox.
Cc1c([N+](=O)[O-])cc(C(C)(C)C)c(O)c1C(=O)Nc1ccc(Cl)c(Cl)c1	Tox.
Cc1c([N+](=O)[O-])cc(C(C)(C)C)c(O)c1C(=O)Nc1ccc(Cl)cc1Cl	Tol.
Cc1c([N+](=O)[O-])cc(C(C)(C)C)c(O)c1C(=O)Nc1cc(Cl)ccc1Cl [Example 24, reference compound]	Tol.
Cc1cc(Br)ccc1NC(=O)c1c(C)c([N+](=O)[O-])cc(C(C)(C)C)c1O	Tox.
